- assay-protocol: Cytotoxicity in host cells by microscopic examination and retardation of cell growth rate
- Type: cell-based
- condition-parameters: dog; MDCK cells; hydrochloride; read-out: MCC (minimum cytotoxic concentration)
This listing pairs molecules with measured MCC at 72 h.

Worked examples, 5 molecules total:
>>> reading("CNC12COC3CC(CCC31)C2 (centres unmarked) [Compound No. 18-2, 5-Oxa-3-N-methylamino-isotwistane]")
"> 200 µg/mL"
>>> reading("N[C@H]1[C@H]2CC[C@H]3[C@@H]1CO[C@H]3C2 (relative stereo) [Compound No. 12-9, 5-Oxa-exo-2-amino-isotwistane]")
"100 µg/mL"
>>> reading("NCC12COC3CC(CCC31)C2 (centres unmarked) [Compound No. 27-2, 5-Oxa-3-aminomethyl-isotwistane]")
"200 µg/mL"
>>> reading("NCC12CSC3CC(CCC31)C2 (centres unmarked) [Compound No. 53-1]")
"25 µg/mL"
>>> reading("NCCCC12COC3CC(CCC31)C2 (centres unmarked) [Compound No. 27-4, 5-Oxa-3-(ω-amino-n-propyl)-isotwistane]")
"100 µg/mL"

Query string: Would you kindly share the measured MCC at 72 h for NC12CC3CC(CC(C3)C1)C2 [Amantadine, reference compound] ?
Result string: 12.5 µg/mL

----------
Each entry below lists one item and its recorded Number of showing anti-catalepty activity/Number of total animal value.
- Tested on: catalepsy induced by haloperidol
- assay-protocol: Effects on the catalepsy induced by haloperidol (anti-catalepsy activity)
- Format: in vivo, male dd-strain mice
- condition-parameters: 500 mg/kg s.c., 0.5 hour after test drug, haloperidol 7 mg/kg s.c., hydrochloride
- Procedure: Pharmcol., 22, 546-547 (1970)" or "J. May et al., Psychopharmcol., 24, 296-307 (1972)". Effects on the catalepsy induced by haloperidol: Six male dd-strain mice, weighing 25±3 g, were used in each group. Test drugs were injected intraperitoneally or subcutaneously 3.5 hours after the injection of haloperidol (7 mg/kg, s.c.). The catalepsy was measured at 0.5 hour after injection of test drugs according to the method of Wirth et al. with slight modification [cf. […]

>>> reading("NCC12COC3CC(CCC31)C2 (stereo not drawn)")
"1/6"
>>> reading("NC12COC3CC(CCC31)C2 (stereo not drawn)")
"2/6"
>>> reading("NC1C2CCC3C(COC13)C2 (stereo not drawn)")
"0/6"
>>> reading("N[C@@H]1[C@H]2CC[C@H]3[C@@H]1CO[C@H]3C2 (relative stereo) [Compound No. 12-4, 5-Oxa-endo-2-amino-isotwistane]")
"0/6"
>>> reading("NC[C@@H]1[C@H]2CC[C@H]3[C@@H]1CO[C@H]3C2 (relative stereo) [Compound No. 25-3, 5-Oxa-endo-2-aminomethyl-isotwistane]")
"0/6"

# evaluate next
Query string: Looking for the measured Number of showing anti-catalepty activity/Number of total animal of CN[C@@H]1[C@H]2CC[C@H]3[C@@H]1CO[C@H]3C2 (relative stereo) [Compound No. 18-3, 5-Oxa-endo-2-N-methylamino-isotwistane] , can you help?
Result string: 1/6

----------
Each entry below carries its reported MCC at 72 h.
- assay-protocol: Cytotoxicity in host cells by microscopic examination and retardation of cell growth rate
- Type: cell-based
- condition-parameters: dog; MDCK cells; hydrochloride; read-out: MCC (minimum cytotoxic concentration)
Kindly answer with a numeric value in µg/mL, unit omitted.

Reference set, count: 5
>>> reading("CC(N)C12COC3CC(CCC31)C2 (centres unmarked)")
50
>>> reading("NC[C@@H]1[C@H]2CC[C@H]3[C@@H]1CO[C@H]3C2 (relative stereo) [Compound No. 25-3, 5-Oxa-endo-2-aminomethyl-isotwistane]")
100
>>> reading("NC[C@H]1[C@H]2CC[C@H]3[C@@H]1CO[C@H]3C2 (relative stereo) [Compound No. 67-1, exo-2-aminomethyl-5-oxa-isotwistane]")
100
>>> reading("NC12COC3CC(CCC31)C2 (centres unmarked)")
100
>>> reading("NC1C2CC3COC1C3C2 (centres unmarked)")
100

Query string: Entry CN(C)CC12COC3CC(CCC31)C2 (centres unmarked) has what MCC at 72 h?
Result string: 100

Query string: I would be grateful if you could share the reported MCC at 72 h for NCC12CSC3CC(CC31)C2 (centres unmarked) .
Result string: 50

Query string: Bench note: what MCC at 72 h did N[C@@H]1[C@H]2CC[C@H]3[C@@H]1CO[C@H]3C2 (relative stereo) [Compound No. 12-4, 5-Oxa-endo-2-amino-isotwistane] show?
Result string: 100

Query string: MCC at 72 h for NC1C2CCC3C(COC13)C2 (centres unmarked) ?
Result string: 100

Query string: So what's the measured MCC at 72 h for this one? NCC1C2CCC3C(COC13)C2 (centres unmarked)
Result string: 100
